# assay-method-text: head-to-tail type lactamisation of side-chain-protected branched depsipeptide (Gly10 N-terminus of ester branch + C-terminal Pro9), HATU/DIPEA (pH ~10), microwave
# experimental-setup: the molecule shown is the open-chain precursor; 28-membered ring; DCM; 6.0 mM; 70.0 °C; 1.0 h
observable: ring closure, overall yield (%)

1) CCCCCCCCCC(=O)NC[C@@H](C)C(=O)NCC(=O)N[C@H](CCC(=O)OC(C)(C)C)C(=O)N[C@@H](Cc1ccc(OC(C)(C)C)cc1)C(=O)N[C@H](C(=O)N[C@@H](C(=O)N[C@@H](CC(=O)OC(C)(C)C)C(=O)N[C@@H](CC(=O)OC(C)(C)C)C(=O)N1CCC[C@H]1C(=O)O)[C@H](C)CC)[C@@H](C)OC(=O)CN(C)C(=O)[C@H](CC(=O)OC(C)(C)C)NC(=O)[C@H](CC(=O)OC(C)(C)C)NC(=O)CN; 0.4

---

# assay-method-text: TLC precursor-binding assay with C55-P
# experimental-setup: absence of C55-P spot = potential indicator of binding; KMnO4 staining in Figure S5
Numbered stars: 1 amine (or outer) side, 2 acyl side, 3 side chain; on linkers, the order of the positions; unused ones are H or OH. Bridge positions count the residues as written; N and C are the ends. Square brackets hold non-standard residues; d marks the D form. Peptide text beside a SMILES is read from it. * marks the point of attachment. β2hAla(R) = C[C@H](CN[*:1])C(=O)[*:2]; Decanoyl = CCCCCCCCCC(=O)*; Sar = CNCC(=O)O
observable: C55-P spot on TLC after incubation with peptide (in words)

1. CCCCCCCCCC(=O)NC[C@@H](C)C(=O)NCC(=O)N[C@H](CCC(=O)O)C(=O)N[C@@H](Cc1ccc(O)cc1)C(=O)N[C@@H]1C(=O)N[C@H]([C@H](C)CC)C(=O)N[C@@H](CC(=O)O)C(=O)N[C@@H](CC(=O)O)C(=O)N2CCC[C@H]2C(=O)NCC(=O)N[C@@H](CCC(=O)O)C(=O)N[C@@H](CCC(=O)O)C(=O)N(C)CC(=O)O[C@@H]1C [Peptide C2b] (Decanoyl-[β2hAla(R)]G[dE]YT[dI]DDPGEE[Sar]; ester 5-C); no longer visible
2. CCCCCCCCCC(=O)NC[C@@H](C)C(=O)NCC(=O)N[C@H](CCC(=O)O)C(=O)N[C@@H](Cc1ccc(O)cc1)C(=O)N[C@@H]1C(=O)N[C@H]([C@H](C)CC)C(=O)N[C@@H](CC(=O)O)C(=O)N[C@@H](CC(=O)O)C(=O)N2CCC[C@H]2C(=O)NCC(=O)N[C@@H](CCC(=O)O)C(=O)N[C@@H](CCC(=O)O)C(=O)N(C)CC(=O)O[C@@H]1C [Peptide C2a] (Decanoyl-[β2hAla(R)]G[dE]YT[dI]DDPGEE[Sar]; ester 5-C); no longer visible

---

# assay-method-text: TLC precursor-binding assay with C55-P
# Parameters: key: “+” indicates binding confirmed; “-” indicates no binding; “~” indicates potential binding with absence of precursor band
# experimental-setup: peptide 0.5, 1, 2 equiv. with C55-P in Tris·HCl pH 7.5, 50 mM CaCl2, 1 h; silica TLC
Numbered stars: 1 amine (or outer) side, 2 acyl side, 3 side chain; on linkers, the order of the positions; unused ones are H or OH. Bridge positions count the residues as written; N and C are the ends. Square brackets hold non-standard residues; d marks the D form. Peptide text beside a SMILES is read from it. * marks the point of attachment. β2hAla(R) = C[C@H](CN[*:1])C(=O)[*:2]; Decanoyl = CCCCCCCCCC(=O)*; Sar = CNCC(=O)O
observable: C55-P (TLC binding)

1. CCCCCCCCCC(=O)NC[C@@H](C)C(=O)NCC(=O)N[C@H](CCC(=O)O)C(=O)N[C@@H](Cc1ccc(O)cc1)C(=O)N[C@@H]1C(=O)N[C@H]([C@H](C)CC)C(=O)N[C@@H](CC(=O)O)C(=O)N[C@@H](CC(=O)O)C(=O)N2CCC[C@H]2C(=O)NCC(=O)N[C@H](CCC(=O)O)C(=O)N[C@@H](CC(=O)O)C(=O)N(C)CC(=O)O[C@@H]1C [Peptide C7a] (Decanoyl-[β2hAla(R)]G[dE]YT[dI]DDPG[dE]D[Sar]; ester 5-C); -
2. CCCCCCCCCC(=O)NC[C@@H](C)C(=O)NCC(=O)N[C@H](CCC(=O)O)C(=O)N[C@@H](Cc1ccc(O)cc1)C(=O)N[C@@H]1C(=O)N[C@H]([C@H](C)CC)C(=O)N[C@@H](CC(=O)O)C(=O)N[C@@H](CC(=O)O)C(=O)N2CCC[C@H]2C(=O)NCC(=O)N[C@@H](CC(=O)O)C(=O)N[C@@H](CC(=O)O)C(=O)N(C)CC(=O)O[C@@H]1C [Peptide C4] (Decanoyl-[β2hAla(R)]G[dE]YT[dI]DDPGDD[Sar]; ester 5-C); -

---

# assay-method-text: TLC precursor-binding assay with lipid II
# Set-up: key: “+” indicates binding confirmed; “-” indicates no binding; “~” indicates potential binding with absence of precursor band
# experimental-setup: peptide 0.5, 1, 2 equiv. (nisin 0.1, 0.5, 1 equiv.) with lipid II in Tris·HCl pH 7.5, 50 mM CaCl2, 1 h; silica TLC
Numbered stars: 1 amine (or outer) side, 2 acyl side, 3 side chain; on linkers, the order of the positions; unused ones are H or OH. Bridge positions count the residues as written; N and C are the ends. Square brackets hold non-standard residues; d marks the D form. Peptide text beside a SMILES is read from it. * marks the point of attachment. β2hAla(R) = C[C@H](CN[*:1])C(=O)[*:2]; Decanoyl = CCCCCCCCCC(=O)*; Dap = NC[C@H](N)C(=O)O; Sar = CNCC(=O)O
observable: Lipid II (TLC binding)

1) CCCCCCCCCC(=O)NC[C@@H](C)C(=O)NCC(=O)N[C@H](CCC(=O)O)C(=O)N[C@@H](Cc1ccc(O)cc1)C(=O)N[C@@H]1C(=O)N[C@H]([C@H](C)CC)C(=O)N[C@@H](CC(=O)O)C(=O)N[C@@H](CC(=O)O)C(=O)N2CCC[C@H]2C(=O)NCC(=O)N[C@H](CCC(=O)O)C(=O)N[C@@H](CCC(=O)O)C(=O)N(C)CC(=O)O[C@@H]1C [Peptide C1b] (Decanoyl-[β2hAla(R)]G[dE]YT[dI]DDPG[dE]E[Sar]; ester 5-C); -
2) CCCCCCCCCC(=O)N[C@@H](CC(=O)O)C(=O)N[C@H]1CNC(=O)[C@@H]2CCCN2C(=O)[C@H](C(C)C)NC(=O)CNC(=O)[C@@H](CC(=O)O)NC(=O)CNC(=O)[C@H](CC(=O)O)NC(=O)[C@H](CC(=O)O)NC(=O)[C@H](CCCCN)NC(=O)[C@@H](C(C)C)NC1=O [Peptide M4] (Decanoyl-D[Dap][dV]KDDG[dD]GVP; lactam 2-C); -
3) CCCCCCCCCC(=O)N[C@@H](CC(=O)O)C(=O)N[C@H]1CNC(=O)[C@@H]2CCCN2C(=O)[C@H](C(C)C)NC(=O)[C@@H](CC(=O)O)NC(=O)CNC(=O)[C@H](CC(=O)O)NC(=O)[C@H](CC(=O)O)NC(=O)[C@H](CCCCN)NC(=O)[C@@H](C(C)C)NC1=O [Peptide M1] (Decanoyl-D[Dap][dV]KDDG[dD]VP; lactam 2-C); -

---

# assay-method-text: TLC precursor-binding assay with lipid II
# Design: key: “+” indicates binding confirmed; “-” indicates no binding; “~” indicates potential binding with absence of precursor band
# experimental-setup: peptide 0.5, 1, 2 equiv. (nisin 0.1, 0.5, 1 equiv.) with lipid II in Tris·HCl pH 7.5, 50 mM CaCl2, 1 h; silica TLC
Numbered stars: 1 amine (or outer) side, 2 acyl side, 3 side chain; on linkers, the order of the positions; unused ones are H or OH. Bridge positions count the residues as written; N and C are the ends. Square brackets hold non-standard residues; d marks the D form. Peptide text beside a SMILES is read from it. * marks the point of attachment. β2hAla(R) = C[C@H](CN[*:1])C(=O)[*:2]; Decanoyl = CCCCCCCCCC(=O)*; Sar = CNCC(=O)O
observable: Lipid II (TLC binding)

1) CCCCCCCCCC(=O)NC[C@@H](C)C(=O)NCC(=O)N[C@H](CCC(=O)O)C(=O)N[C@@H](Cc1ccc(O)cc1)C(=O)N[C@@H]1C(=O)N[C@H]([C@H](C)CC)C(=O)N[C@@H](CC(=O)O)C(=O)N[C@@H](CC(=O)O)C(=O)N2CCC[C@H]2C(=O)NCC(=O)N[C@@H](CCC(=O)O)C(=O)N[C@@H](CCC(=O)O)C(=O)N(C)CC(=O)O[C@@H]1C [Peptide C2a] (Decanoyl-[β2hAla(R)]G[dE]YT[dI]DDPGEE[Sar]; ester 5-C); -
2) CCCCCCCCCC(=O)NC[C@@H](C)C(=O)NCC(=O)N[C@H](CCC(=O)O)C(=O)N[C@@H](Cc1ccc(O)cc1)C(=O)N[C@@H]1C(=O)N[C@H]([C@H](C)CC)C(=O)N[C@@H](CC(=O)O)C(=O)N[C@@H](CC(=O)O)C(=O)N2CCC[C@H]2C(=O)NCC(=O)N[C@@H](CC(=O)O)C(=O)N[C@@H](CCC(=O)O)C(=O)N(C)CC(=O)O[C@@H]1C [Peptide C6] (Decanoyl-[β2hAla(R)]G[dE]YT[dI]DDPGDE[Sar]; ester 5-C); -
